Ref: ChEMBL document CHEMBL1134409

Target: C-C chemokine receptor type 4 (Homo sapiens)
Sequence (P51679 whole entry): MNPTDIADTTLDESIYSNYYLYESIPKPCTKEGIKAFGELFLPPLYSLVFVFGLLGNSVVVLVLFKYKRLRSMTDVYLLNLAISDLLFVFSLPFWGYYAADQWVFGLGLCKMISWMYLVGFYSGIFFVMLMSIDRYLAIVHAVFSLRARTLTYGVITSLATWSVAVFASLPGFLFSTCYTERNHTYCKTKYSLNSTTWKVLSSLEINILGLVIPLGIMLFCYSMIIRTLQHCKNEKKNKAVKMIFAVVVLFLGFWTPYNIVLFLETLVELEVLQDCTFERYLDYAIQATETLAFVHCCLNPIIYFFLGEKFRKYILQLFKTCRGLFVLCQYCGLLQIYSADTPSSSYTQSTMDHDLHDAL
Assay: Inhibitory activity against […] induced increase in intracellular [Ca2+] in KU812 cells expressing human CCR4 receptor
measured_property: IC50

Which IC50 is listed for CC[N+]1(C/C2=C/CCCCCC2)CCC(NC(=O)C2c3cc(Cl)ccc3Oc3ccc(Cl)cc32)CC1 (stereo in doubt; 2q-1) ?
> 10 µM

---

Target: C-C chemokine receptor type 1 (Homo sapiens, UniProt P32246)
Sequence (P32246 whole entry): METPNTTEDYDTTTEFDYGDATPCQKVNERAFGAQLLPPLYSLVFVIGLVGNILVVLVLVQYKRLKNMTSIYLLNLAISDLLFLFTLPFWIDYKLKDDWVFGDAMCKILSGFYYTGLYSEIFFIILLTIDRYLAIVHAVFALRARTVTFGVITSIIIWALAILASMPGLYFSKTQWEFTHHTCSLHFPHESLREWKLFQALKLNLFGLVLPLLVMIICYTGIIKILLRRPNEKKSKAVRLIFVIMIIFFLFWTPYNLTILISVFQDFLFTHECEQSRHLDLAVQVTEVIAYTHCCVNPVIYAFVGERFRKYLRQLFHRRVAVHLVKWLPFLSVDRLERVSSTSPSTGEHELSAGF
Assay: Inhibitory activity against MIP-1 alpha- induced [Ca2+] response in U937 cells expressing human CCR1 receptor
Type: functional, cell-based, U-937
measured_property: pIC50
Keep in mind that pIC50 stands for -log10 of concentration in molar terms.

API: value(readout= pIC50, system= C-C chemokine receptor type 1 (Homo sapiens, UniProt P32246), query= CC[N+]1(C/C2=C/CCCCCC2)CCC(NC(=O)C2c3cc(Cl)ccc3Oc3ccc(Cl)cc32)CC1 (stereo in doubt; 2q-1) )
9.14

---

Target: C-C chemokine receptor type 1 (Mus musculus)
Assay: Inhibitory activity against 125 I -MIP-1 alpha binding to mouse CCR1 receptors
measured_property: IC50 (nM)
# number only, unit nM dropped from output

API: value(readout= IC50, system= C-C chemokine receptor type 1 (Mus musculus), query= CC[N+]1(C/C2=C/CCCCCC2)CCC(NC(=O)C2c3cc(Cl)ccc3Oc3ccc(Cl)cc32)CC1 (stereo in doubt; 2q-1) )
5.8

---

Target: UniProt P51677
Sequence (P51677 whole entry): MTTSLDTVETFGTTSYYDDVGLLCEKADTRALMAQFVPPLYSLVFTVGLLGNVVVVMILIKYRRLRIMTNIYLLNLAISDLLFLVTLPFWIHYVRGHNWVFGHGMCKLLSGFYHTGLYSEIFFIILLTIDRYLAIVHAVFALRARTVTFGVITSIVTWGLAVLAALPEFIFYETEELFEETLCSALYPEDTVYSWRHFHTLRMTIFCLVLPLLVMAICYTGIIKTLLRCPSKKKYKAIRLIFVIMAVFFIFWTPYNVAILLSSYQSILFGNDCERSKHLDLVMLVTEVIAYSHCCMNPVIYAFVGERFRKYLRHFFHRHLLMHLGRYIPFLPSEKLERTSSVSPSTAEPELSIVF
Assay: Inhibitory activity against I-Eotaxin induced [Ca2+] response in human CCR3 receptor
Assay type: functional
measured_property: IC50 (nM)
# number only, unit nM dropped from output

Which IC50 is listed for CC[N+]1(C/C2=C/CCCCCC2)CCC(NC(=O)C2c3cc(Cl)ccc3Oc3ccc(Cl)cc32)CC1 (stereo in doubt; 2q-1) ?
6.1

---

Biological target: UniProt:P32246
Assay: Inhibitory activity against [125I]-MIP-1 alpha binding to human CCR1 receptors.
measured_property: IC50 (µM)
# number only, unit µM dropped from output

Illustrative cases are given below, each with its answer.
molecule="C[N+]1(CC2CCCCCCC2)CCC(NC(=O)c2c3ccccc3cc3ccccc23)CC1 (stereo not drawn)" measured_property=IC50 measured_result=1.8
molecule="CC[N+]1(C/C2=C/CCCCCC2)CCC(NC(=O)C2c3cc(Br)ccc3Oc3ccc(Br)cc32)CC1 (stereo not drawn)" measured_property=IC50 measured_result=0.0019
molecule="C[N+]1(CC2CCCCCCC2)CCC(NC(=O)C2c3ccccc3Oc3ccccc32)CC1 (stereo not drawn)" measured_property=IC50 measured_result=0.014
molecule=O=C(NC1CCN(CC2CCCCCCC2)CC1)C1c2cc(Br)ccc2Oc2ccc(Br)cc21 measured_property=IC50 measured_result=5.1
molecule=O=C(NC1CCN(C/C2=C/CCCCCC2)CC1)C1c2cc(Cl)ccc2Oc2ccc(Cl)cc21 measured_property=IC50 measured_result=0.24

API: value(readout= IC50, system= UniProt:P32246, query= C[N+]1(CC2CCCCCCC2)CCC(NC(=O)C(c2ccccc2)c2ccccc2)CC1 (stereo not drawn) )
0.8

Ok, now O=C(NC1CC[N+](Cc2ccccc2)(CC2CCCCCCC2)CC1)C1c2ccccc2Oc2ccccc21 (stereo not drawn)
0.37

Ok, now C[N+]1(C/C2=C/CCCCCC2)CCC(NC(=O)C2c3ccccc3Oc3ccccc32)CC1 (stereo not drawn)
0.0025

Ok, now C[N+]1(CC2CCCCCCC2)CCC(NC(=O)C2c3cc(Cl)ccc3Oc3ccc(Cl)cc32)CC1 (stereo not drawn)
0.017

Ok, now CCCC[N+]1(CC2CCCCCCC2)CCC(NC(=O)C2c3ccccc3Oc3ccccc32)CC1 (stereo not drawn)
0.005

Ok, now O=C(NC1CCN(CC2CCCCC2)CC1)C1c2ccccc2Oc2ccccc21
0.2

Ok, now O=C(NC1CCN(CC2CCCCCCC2)CC1)C(c1ccccc1)c1ccccc1
1.1

Ok, now CCC[N+]1(C/C2=C/CCCCCC2)CCC(NC(=O)C2c3ccccc3Oc3ccccc32)CC1 (stereo not drawn)
0.0028

Ok, now N#CC(CCCN1CCC(O)(c2ccc(Cl)cc2)CC1)(c1ccccc1)c1ccccc1 [BERLEX COMPOUND]
0.048

Ok, now C=CC[N+]1(CC2CCCCCCC2)CCC(NC(=O)C2c3ccccc3Oc3ccccc32)CC1 (stereo not drawn)
0.0097

Ok, now CC[N+]1(C/C2=C/CCCCCC2)CCC(NC(=O)C2c3ccccc3Oc3ccccc32)CC1 (stereo not drawn)
0.002

Ok, now O=C(NC1CCN(C/C2=C/CCCCCC2)CC1)C1c2ccccc2Oc2ccccc21
0.051

Ok, now O=C(NC1CCN(C/C2=C/CCCCCC2)CC1)C1c2cc(Br)ccc2Oc2ccc(Br)cc21
0.15

Ok, now O=C(NC1CCN(CC2CCCCCCC2)CC1)C1c2ccccc2Oc2ccccc21
0.14

---

Target: Probable C-C chemokine receptor type 3 (Mus musculus, UniProt P51678)
Sequence (P51678 whole entry): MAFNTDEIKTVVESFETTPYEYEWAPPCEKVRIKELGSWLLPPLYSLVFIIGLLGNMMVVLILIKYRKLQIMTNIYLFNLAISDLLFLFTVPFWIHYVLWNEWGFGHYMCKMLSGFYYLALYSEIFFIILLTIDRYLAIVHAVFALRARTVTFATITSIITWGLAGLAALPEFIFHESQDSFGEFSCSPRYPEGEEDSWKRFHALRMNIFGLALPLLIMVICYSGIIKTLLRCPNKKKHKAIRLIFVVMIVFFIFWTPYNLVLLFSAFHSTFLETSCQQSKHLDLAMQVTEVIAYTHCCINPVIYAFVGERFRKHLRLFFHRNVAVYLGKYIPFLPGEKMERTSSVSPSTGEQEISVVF
Assay: Inhibitory activity against I-Eotaxin alpha binding to mouse CCR3 receptors
measured_property: pIC50
Keep in mind that pIC50 stands for -log10 of concentration in molar terms.

Which pIC50 is listed for CC[N+]1(C/C2=C/CCCCCC2)CCC(NC(=O)C2c3cc(Cl)ccc3Oc3ccc(Cl)cc32)CC1 (stereo in doubt; 2q-1) ?
6.34

---

Molecular target: C-C chemokine receptor type 1 (Mus musculus, UniProt P51675)
Sequence (P51675 whole entry): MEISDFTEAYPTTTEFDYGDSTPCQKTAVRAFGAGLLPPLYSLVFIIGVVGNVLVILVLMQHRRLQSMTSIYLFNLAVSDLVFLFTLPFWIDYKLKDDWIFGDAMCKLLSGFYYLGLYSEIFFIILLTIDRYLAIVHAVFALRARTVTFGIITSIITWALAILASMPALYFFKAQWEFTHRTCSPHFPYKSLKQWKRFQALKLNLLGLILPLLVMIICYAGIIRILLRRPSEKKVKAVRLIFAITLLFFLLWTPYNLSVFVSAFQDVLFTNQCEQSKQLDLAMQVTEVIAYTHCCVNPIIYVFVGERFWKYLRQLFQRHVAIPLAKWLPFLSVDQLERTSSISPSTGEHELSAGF
Assay: Inhibitory activity against [125I]-MIP-1 alpha binding to mouse CCR1 receptors.
pIC50: −log10 of the molar value.
Returns TRUE if the recorded pIC50 is greater than or equal to 6, and FALSE otherwise.

Sample answers from the record:
compound="CC[N+]1(C/C2=C/CCCCCC2)CCC(NC(=O)C2c3cc(Br)ccc3Oc3ccc(Br)cc32)CC1 (stereo not drawn)" class_label=TRUE
compound="CC[N+]1(CC2CCCCCCC2)CCC(NC(=O)C2c3cc(Br)ccc3Oc3ccc(Br)cc32)CC1 (stereo not drawn)" class_label=TRUE
compound=O=C(NC1CCN(C/C2=C/CCCCCC2)CC1)C1c2ccccc2Oc2ccccc21 class_label=TRUE
compound=O=C(NC1CCN(CC2CCCCCCCCC2)CC1)C1c2ccccc2Oc2ccccc21 class_label=FALSE
compound=O=C(NC1CCN(CC2CCCCCCC2)CC1)c1c2ccccc2cc2ccccc12 class_label=FALSE
compound=O=C(NC1CCN(CC2CCCCCCC2)CC1)C1c2ccccc2Oc2ccccc21 class_label=FALSE

Given O=C(NC1CCN(CC2CCCCCCC2)CC1)C1c2cc(Br)ccc2Oc2ccc(Br)cc21 , state whether its pIC50 is at least 6.
FALSE

Ok, now N#CC(CCCN1CCC(O)(c2ccc(Cl)cc2)CC1)(c1ccccc1)c1ccccc1
FALSE

Ok, now O=C(NC1CCN(C/C2=C/CCCCCC2)CC1)C1c2cc(Br)ccc2Oc2ccc(Br)cc21
FALSE

---

Molecular target: C-C chemokine receptor type 2 (Homo sapiens)
Sequence (P41597 whole entry): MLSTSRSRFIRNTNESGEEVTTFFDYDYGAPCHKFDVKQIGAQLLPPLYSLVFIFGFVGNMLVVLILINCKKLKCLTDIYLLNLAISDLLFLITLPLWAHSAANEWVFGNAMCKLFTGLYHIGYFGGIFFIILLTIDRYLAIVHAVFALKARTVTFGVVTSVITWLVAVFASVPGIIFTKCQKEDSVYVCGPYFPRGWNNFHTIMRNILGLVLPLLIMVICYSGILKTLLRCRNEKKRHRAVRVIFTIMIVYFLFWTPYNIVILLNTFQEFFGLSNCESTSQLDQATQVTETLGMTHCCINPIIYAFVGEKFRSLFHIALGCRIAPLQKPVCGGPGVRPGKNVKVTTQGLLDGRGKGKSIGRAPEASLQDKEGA
measured_property: IC50

Which IC50 is listed for CC[N+]1(C/C2=C/CCCCCC2)CCC(NC(=O)C2c3cc(Cl)ccc3Oc3ccc(Cl)cc32)CC1 (stereo in doubt; 2q-1) ?
> 1 µM

---

Molecular target: Probable C-C chemokine receptor type 3 (Mus musculus)
Sequence (P51678 whole entry): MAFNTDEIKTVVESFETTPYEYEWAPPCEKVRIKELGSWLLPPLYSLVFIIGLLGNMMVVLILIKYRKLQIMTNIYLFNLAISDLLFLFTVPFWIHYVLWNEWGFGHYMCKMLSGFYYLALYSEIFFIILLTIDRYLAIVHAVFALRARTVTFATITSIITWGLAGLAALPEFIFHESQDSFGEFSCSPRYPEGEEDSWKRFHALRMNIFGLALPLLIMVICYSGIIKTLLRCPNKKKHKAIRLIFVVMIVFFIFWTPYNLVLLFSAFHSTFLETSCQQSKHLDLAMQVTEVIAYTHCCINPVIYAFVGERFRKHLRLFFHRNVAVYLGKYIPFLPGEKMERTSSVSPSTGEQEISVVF
Test: Inhibitory activity against I-Eotaxin induced [Ca2+] response in mouse CCR3 receptor
Assay type: functional
measured_property: pIC50
Keep in mind that pIC50 stands for -log10 of concentration in molar terms.

Which pIC50 is listed for CC[N+]1(C/C2=C/CCCCCC2)CCC(NC(=O)C2c3cc(Cl)ccc3Oc3ccc(Cl)cc32)CC1 (stereo in doubt; 2q-1) ?
6.44
